Where do these numbers come from? They come from PubChem BioAssay AID623911.

Biological target: G protein-activated inward rectifier potassium channel 2 (Homo sapiens) + G protein-activated inward rectifier potassium channel 1 (Homo sapiens) (UniProt P48051+P48549)
Sequence (P48051 whole entry, looked up): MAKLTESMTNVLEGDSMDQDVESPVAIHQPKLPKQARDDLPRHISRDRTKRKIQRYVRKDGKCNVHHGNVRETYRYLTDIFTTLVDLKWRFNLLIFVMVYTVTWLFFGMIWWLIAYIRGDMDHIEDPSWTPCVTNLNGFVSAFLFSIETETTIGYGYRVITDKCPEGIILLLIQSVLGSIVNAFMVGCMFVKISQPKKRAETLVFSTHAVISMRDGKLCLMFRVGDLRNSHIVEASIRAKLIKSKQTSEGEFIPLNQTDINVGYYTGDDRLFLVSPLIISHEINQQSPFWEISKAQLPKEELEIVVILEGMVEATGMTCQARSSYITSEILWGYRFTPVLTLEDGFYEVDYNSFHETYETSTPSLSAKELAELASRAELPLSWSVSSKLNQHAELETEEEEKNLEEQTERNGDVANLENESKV
Sequence (P48549 whole entry, looked up): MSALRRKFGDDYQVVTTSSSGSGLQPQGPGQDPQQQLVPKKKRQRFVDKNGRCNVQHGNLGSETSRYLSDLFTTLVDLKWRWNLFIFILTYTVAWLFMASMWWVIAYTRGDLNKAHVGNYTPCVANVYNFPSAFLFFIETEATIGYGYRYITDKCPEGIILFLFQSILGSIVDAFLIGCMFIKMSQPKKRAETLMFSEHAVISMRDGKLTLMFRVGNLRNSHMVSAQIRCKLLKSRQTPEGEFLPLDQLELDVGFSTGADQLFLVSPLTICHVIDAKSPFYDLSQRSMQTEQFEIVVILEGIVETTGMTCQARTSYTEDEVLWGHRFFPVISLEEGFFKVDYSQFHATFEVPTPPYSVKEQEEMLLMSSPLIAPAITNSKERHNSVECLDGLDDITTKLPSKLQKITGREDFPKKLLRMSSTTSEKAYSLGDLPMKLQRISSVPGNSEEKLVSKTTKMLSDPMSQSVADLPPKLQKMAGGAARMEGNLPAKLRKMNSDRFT
Experiment: GIRK1/2 thallium flux modulators, retest, confirmation, cell-based, HEK293 rmGlu8/hGIRK1/2, FluoZin-2 (AID 623911)
Settings: HEK293 rmGlu8/hGIRK1/2, thallium flux FluoZin-2; actives lie on both sides; glutamate co-added at its EC20 level
Hit rate of the full screen: of about 2,100 compounds, about 770 (37%) were called active.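 Rule for the calls: active = by-eye trace score of 1 for enhancers or -1 for inhibitors, so actives lie on both sides (some results past the limit were not filed as active); inactive = score 0, or 3 fluorescent, or 4 baseline rise.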 The list shows a part of the results.
Please reply with one of these outcomes: class 1 for active, class 0 for inactive

As a guide, the following entries are already answered.
MOLECULE: COc1ccccc1N1CCN(Cc2cc(Br)c(O)c3ncccc23)CC1
CLASSIFICATION: class 0
//
MOLECULE: CCOc1ccc(OCCSc2nc3ccccc3[nH]2)cc1
CLASSIFICATION: class 1
//
MOLECULE: C=CCNC(=S)Nc1sc2c(c1C(=O)OCC)CC(C)(CC)OC2 (configuration not stated)
CLASSIFICATION: class 1
//
MOLECULE: CCOC(=O)c1c(NC(=S)NCCc2ccccc2)sc2c1CC(C(C)C)OC2 (configuration not stated)
CLASSIFICATION: class 0
//
MOLECULE: Clc1ccccc1-c1nnc2sc(CCc3ccccc3)nn12
CLASSIFICATION: class 0

Query: For this molecule, state the assay outcome: `CCOC(=O)CSc1cc(CSc2ccccc2)nc(-c2ccccc2)n1`
Result: class 0

Query: Hi, do you know how `N=c1c2c(-c3ccccc3)c(-c3ccccc3)n(Cc3ccccc3)c2ncn1CCCO` came out in this test?
Result: class 1

Query: Just curious, what result did `CCCOc1cccc(OCCSc2nc(C)cc(=O)[nH]2)c1` get here?
Result: class 0

Query: Could you kindly confirm the outcome this assay logged for `CCNC(=O)NC(=O)COC(=O)CCCSc1nc2ccccc2[nH]1` ?
Result: class 0

Query: So what was the verdict on `COC(=O)c1ccc(Cl)c(NC(=O)CN2CCN(C)CC2)c1` in this test?
Result: class 0

Query: What classification did CCOC(=O)C(Cc1ccccc1)NC(=O)Cn1nnc(-c2ccccc2)n1 (configuration not stated) end up with in this test?
Result: class 1

---

Some compounds, each annotated with its measured manual score.
Biological target: G protein-activated inward rectifier potassium channel 2 (Homo sapiens) + G protein-activated inward rectifier potassium channel 1 (Homo sapiens) (UniProt P48051+P48549)
Assay: GIRK1/2 thallium flux modulators, retest, confirmation, cell-based, HEK293 rmGlu8/hGIRK1/2, FluoZin-2 (AID 623911)
Details: HEK293 rmGlu8/hGIRK1/2, thallium flux FluoZin-2; actives lie on both sides; glutamate co-added at its EC20 level
The whole screen tested about 2,100 compounds, of which about 770 (37%) were called active. The list shows a part of the results.
The response must contain the number and no unit.

Examples from the recorded data:
COMPOUND: COc1ccc(-c2nnc(NC(=O)c3ccc(S(=O)(=O)N4CCCc5ccccc54)cc3)o2)cc1
manual score: 0

COMPOUND: CN1/C(=C\C=C2/C(=O)Oc3ccccc3C2=O)C(C)(C)c2ccccc21
manual score: 3

COMPOUND: COc1ccc(-c2nnc(NC(=O)c3ccc(F)cc3)o2)cc1
manual score: 1

COMPOUND: COc1ccc(-c2nnc(NC(=O)c3ccc(S(=O)(=O)N4CCc5ccccc5C4)cc3)o2)cc1
manual score: 0

COMPOUND: CCCN(CCC)CC(O)Cn1cc(/C=C/C(=O)c2cccs2)c2ccccc21 (stereo not drawn)
manual score: 3

COMPOUND: CCc1ccc(/C=C/C(=O)C2C(=O)c3ccccc3C2=O)cc1
manual score: 1

COMPOUND: CN(C)Cc1c(O)c(Cl)cc2c3c(c(=O)oc12)CCCC3
manual score: 0

COMPOUND: CCOC(=O)C1=C(C)NC2=C(C(=O)C(C(=O)OCC)C(c3cccc(OC)c3)C2)C1c1ccccn1 (stereo not drawn)
manual score: 0

Query: Returns the measured manual score for the input compound. Input: `CC1CCN(C(=S)NC(=O)c2ccccc2)CC1`
Result: 1

Query: // lookup manual score for `O=C(CSc1ccc(-c2ccco2)nn1)c1ccccc1`
Result: 0

Query: Entry `CCOc1ccc(-c2nc(-c3ccc(OC)c(OC)c3)no2)cc1OCC` has what manual score?
Result: 0

Query: Can you share its manual score? I mean this compound: `O=C(Nc1nnc(-c2ccco2)o1)c1ccc2ccccc2c1`
Result: 1

Query: GET /values?readout=manual score&item= `COc1cccc(-c2cc(C(=O)NC3CCCC3)no2)c1`
Result: 0

Query: Requested read-out: manual score. Entry: `Cc1c(Cl)cccc1NC(=S)/C(=C(\[O-])c1ccc(Cl)s1)[n+]1ccccc1`
Result: 0

Query: Would you mind telling me what manual score value was observed for `O=C(CSc1nc2ccc(Cl)cc2[nH]1)Nc1ccc2c(c1)CCC2` ?
Result: 0

Query: # query: manual score of entry `Cn1c(SCC(=O)c2cc3ccccc3o2)nnc1-c1ccccc1`
Result: 0

Query: GET /values?readout=manual score&item= `CC(=O)Nc1ccc(C(=O)CSc2nc3ccc(C)cc3[nH]2)cc1`
Result: 0

Query: Item under review: `COc1ccc(C(=O)NC(=S)N2CCCCC2)cc1` . Reported manual score?
Result: 2

Query: For the compound `CCOc1ccc(-c2nnc(NC(=O)CCCOc3cccc(C)c3)o2)cc1` , what manual score is on record?
Result: 0

Query: Can you share its manual score? I mean this compound: `Cc1ccccc1C(=O)NNC(=O)C(=O)Nc1cccc(Cl)c1C`
Result: 1

Query: Item `CC1CCN(c2ncccc2C(=O)O)CC1` has what recorded manual score?
Result: 0

Query: manual score lookup needed for `COc1ccc(C(=O)NC(=S)N2CCC(C)CC2)cc1` , thanks.
Result: 1

Query: Find the recorded manual score belonging to `S=c1nc(-c2ccc(Br)cc2)oc2c1CCCC2` and report it.
Result: 1
